Each entry below carries its measured Ki, system: Rho kinase 1 (Homo sapiens).
Sequence (Q13464 whole entry): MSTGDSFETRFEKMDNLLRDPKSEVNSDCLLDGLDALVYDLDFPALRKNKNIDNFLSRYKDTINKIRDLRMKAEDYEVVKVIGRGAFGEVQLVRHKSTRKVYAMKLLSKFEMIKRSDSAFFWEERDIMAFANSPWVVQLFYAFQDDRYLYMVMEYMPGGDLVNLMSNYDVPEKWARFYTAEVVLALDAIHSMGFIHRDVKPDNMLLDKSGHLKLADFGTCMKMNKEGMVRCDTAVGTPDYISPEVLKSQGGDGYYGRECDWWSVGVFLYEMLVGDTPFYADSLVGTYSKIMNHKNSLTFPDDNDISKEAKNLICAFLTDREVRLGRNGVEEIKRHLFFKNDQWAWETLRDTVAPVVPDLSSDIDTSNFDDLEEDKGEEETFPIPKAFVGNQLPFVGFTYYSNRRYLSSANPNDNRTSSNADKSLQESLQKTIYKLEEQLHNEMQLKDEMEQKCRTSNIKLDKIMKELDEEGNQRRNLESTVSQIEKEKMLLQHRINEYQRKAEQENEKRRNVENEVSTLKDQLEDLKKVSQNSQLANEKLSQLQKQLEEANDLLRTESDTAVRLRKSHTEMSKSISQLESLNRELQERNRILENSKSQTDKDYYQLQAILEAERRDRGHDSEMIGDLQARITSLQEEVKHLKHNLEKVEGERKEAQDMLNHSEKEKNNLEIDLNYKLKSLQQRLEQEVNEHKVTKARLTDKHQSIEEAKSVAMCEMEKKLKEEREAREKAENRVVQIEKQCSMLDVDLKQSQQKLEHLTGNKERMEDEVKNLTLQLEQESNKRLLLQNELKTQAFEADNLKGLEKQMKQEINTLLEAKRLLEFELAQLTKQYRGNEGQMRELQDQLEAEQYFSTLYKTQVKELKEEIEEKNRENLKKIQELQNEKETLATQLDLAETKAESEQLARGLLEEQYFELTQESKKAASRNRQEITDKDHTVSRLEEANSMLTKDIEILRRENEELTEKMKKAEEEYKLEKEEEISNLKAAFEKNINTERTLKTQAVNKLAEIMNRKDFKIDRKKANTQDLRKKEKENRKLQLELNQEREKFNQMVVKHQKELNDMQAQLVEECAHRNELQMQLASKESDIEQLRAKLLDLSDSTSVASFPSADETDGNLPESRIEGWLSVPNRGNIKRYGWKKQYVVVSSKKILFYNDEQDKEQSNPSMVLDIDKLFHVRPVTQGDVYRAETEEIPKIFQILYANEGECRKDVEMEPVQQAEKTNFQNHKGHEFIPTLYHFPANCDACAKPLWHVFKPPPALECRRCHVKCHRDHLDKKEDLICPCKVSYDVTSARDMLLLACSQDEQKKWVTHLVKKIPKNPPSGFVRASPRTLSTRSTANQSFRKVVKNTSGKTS

# count of solved cases: 3
CC1=C(C(=O)Nc2ccc3cnccc3c2)C(c2ccc(C(C)(C)C)cc2)n2nc(CO)cc2N1 (stereo not shown) :: 50 to 500 nM
CC1=C(C(=O)Nc2ccc3cnccc3c2)C(c2ccc(C(F)(F)F)c(F)c2)n2nc(CN3CCCCC3)cc2N1 (single isomer, unassigned) [Example 97B] :: < 50 nM
CC1=C(C(=O)Nc2ccc3cnccc3c2)C(c2ccc(C)c(F)c2)n2nc(CN(C)C)cc2N1 (single isomer, unassigned) [Example 110A] :: 50 to 500 nM

What measured Ki is associated with CCOC(=O)c1cc2n(n1)C(c1ccc(C(F)(F)F)cc1)C(C(=O)Nc1ccc3cnccc3c1)=C(C)N2 (stereo not shown) on Rho kinase 1 (Homo sapiens)?
< 50 nM

* * *

pKi: −log10 of the molar value.
// Rho kinase 2 (Homo sapiens, UniProt O75116) pKi records

CC1=C(C(=O)Nc2ccc3[nH]ncc3c2)C(c2ccc(F)cc2)n2nnnc2N1 (single isomer, unassigned) [Example 23B] :: 6.30 to 7.30
CCOC(=O)c1cc2n(n1)C(c1ccc(C(F)(F)F)c(F)c1)C(C(=O)Nc1ccc3cncc(C)c3c1)=C(C)N2 (stereo not drawn) [Example 114] :: > 7.30
CC1=C(C(=O)Nc2ccc3[nH]ncc3c2)C(c2ccc(C(F)(F)F)cc2F)n2nnnc2N1 (single isomer, unassigned) [Example 26A] :: > 7.30
CC1=C(C(=O)Nc2ccc3cnccc3c2)C(c2ccc(C(F)(F)F)c(F)c2)n2nc(C(=O)NC3CC3)cc2N1 (stereo not drawn) [Example 125] :: > 7.30
CC1=C(C(=O)Nc2ccc3cnccc3c2)C(c2ccc(C(F)(F)F)c(F)c2)n2nc(N)cc2N1 (single isomer, unassigned) [130A] :: < 6.30

// moving on: another record for pKi
Entry CC1=C(C(=O)Nc2ccc3cnccc3c2)C(c2ccc(C(F)(F)F)c(F)c2)n2nc(C(=O)N(C)C)cc2N1 (stereo not drawn) [Example 126] has what pKi?
> 7.30

* * *

Observed pKi, system Rho kinase 1 (Homo sapiens, UniProt Q13464).
pKi: −log10 of the molar value.

Some solved cases for reference:
CC1=C(C(=O)Nc2ccc3cnccc3c2)C(c2cccc3c2ccn3C)n2nc(CO)cc2N1 (stereo not shown) :: 6.30 to 7.30
CC1=C(C(=O)Nc2ccc3cnccc3c2)C(c2ccc(C)c(F)c2F)n2nc(CN(C)C)cc2N1 (stereo not shown) [Example 121] :: > 7.30
CC1=C(C(=O)Nc2ccc3cnccc3c2)C(c2ccc(C(F)(F)F)c(F)c2F)n2nc(CN(C)C)cc2N1 (single isomer, unassigned) [Example 122a] :: < 6.30
CC1=C(C(=O)Nc2ccc3cnccc3c2)C(c2ccc(C(F)(F)F)c(F)c2)n2nc(NC(=O)CN3CCCC3)cc2N1 (single isomer, unassigned) [132B] :: < 6.30
CC1=C(C(=O)Nc2ccc3[nH]ncc3c2)C(c2ccc(C(F)(F)F)cc2)n2nc(CO)cc2N1 (single isomer, unassigned) [Example 69A] :: 6.30 to 7.30

Fill blank: measured pKi of the compound CC1=C(C(=O)Nc2ccc3cnccc3c2)C(c2ccc(C(F)(F)F)c(F)c2)n2nc(CNC(=O)CCN3CCCCC3)cc2N1 (single isomer, unassigned) [Example 138A] is ____.
> 7.30

Record: CC1=C(C(=O)Nc2ccc3cnccc3c2)C(c2ccc(C(F)(F)F)c(F)c2)n2nc(CN3CCCCC3)cc2N1 (single isomer, unassigned) [Example 97A]
6.30 to 7.30

Entry to check: CCOC(=O)c1cc2n(n1)C(c1ccc(C(F)(F)F)c(F)c1)C(C(=O)Nc1cc3ccncc3s1)=C(C)N2 (stereo not shown)
> 7.30

One more compound: CC1=C(C(=O)Nc2ccc3[nH]ncc3c2)C(c2ccc(F)cc2)n2nnnc2N1 (single isomer, unassigned) [Example 23A]
> 7.30

Check CC1=C(C(=O)Nc2ccc3cnccc3c2)C(C2COc3ccccc3O2)n2nc(CO)cc2N1 (single isomer, unassigned) [Example 72B] too.
> 7.30

Entry CC1=C(C(=O)Nc2ccc3cnccc3c2)C(CCc2ccccc2)n2nc(CO)cc2N1 (stereo not shown) please
> 7.30

Next up: CC1=C(C(=O)Nc2ccc3cnccc3c2)C(c2ccc(C(F)(F)F)c(F)c2)n2nc(C(=O)NCCN3CCCCC3)cc2N1 (single isomer, unassigned) [77A]
< 6.30

Quick one: COc1ccccc1-c1cc2n(n1)C(c1ccc(F)cc1)C(C(=O)Nc1ccc3[nH]ncc3c1)=C(C)N2 (stereo not shown)
6.30 to 7.30
